Recorded values, source ChEMBL document CHEMBL1201862.

- Tested on: NCI-H522
- EXPERIMENT SUMMARY: NCI tumour cell line growth inhibition, 48 h
Active and inactive are the calls of the source. No stated cut-off is given here; in the data, active = GI50 up to about 1.1 µM and inactive = higher.
Form field: GI50 (one value per entry).

{"COMPOUND": "S=c1sc2c(s1)SCc1cccc(n1)CSc1sc(=S)sc1SCc1cccc(n1)CS2", "GI50": "> 100 µM (inactive)"}
{"COMPOUND": "NC(=O)c1c[se]c(C2OC(COP(=O)(O)CP(=O)(O)OCC3OC(n4cnc5c(N)ncnc54)C(O)C3O)C(O)C2O)n1 (centres undefined)", "GI50": "> 100 µM (inactive)"}
{"COMPOUND": "CCCCCCCC(CC(=O)NC(CO)C(=O)NC(CO)CC(C)C)OC(=O)CC(CCCCCCC)OC(=O)CC(CCCCCCC)OC1OC(C)C(O)C(OC2OC(C)C(O)C(O)C2O)C1O (centres undefined)", "GI50": "13 µM (inactive)"}
{"COMPOUND": "C=CC(C)(C)n1cc(C2=C3OC(=O)C(c4cn(C(C)(C)C=C)c5ccccc45)=C3OC2=O)c2ccccc21", "GI50": "> 100 µM (inactive)"}

* * *

- Test system: 786-0
- EXPERIMENT SUMMARY: NCI tumour cell line growth inhibition, 48 h
Calls of active or inactive are those of the source. Rule as the data show it: active = GI50 up to about 1.1 µM and inactive = higher.
Reported GI50 by item:
REPORTED PROPERTY: GI50

{"COMPOUND": "COc1cc(/C=C\\c2nnc(/C=C\\c3ccc(O)c(OC)c3)s2)ccc1O", "VALUE": "3.85 µM (inactive)"}
{"COMPOUND": "C=C1CCC2CC1C(C(=O)c1c[nH]c3ccccc13)=NC2(C)C (stereo not given)", "VALUE": "> 100 µM (inactive)"}
{"COMPOUND": "CC(CO)C1C[C@H](O)[C@@]2(C)CC(=O)C=C(CO)[C@@H]2C1 (stereo not given in full)", "VALUE": "> 100 µM (inactive)"}
{"COMPOUND": "CCCCNC(=S)Nc1nc(C(=O)NNC(=O)c2ccccc2)cs1", "VALUE": "16.7 µM (inactive)"}
{"COMPOUND": "COc1ccc(CNc2cc(OC)cc(OC)c2)cc1", "VALUE": "> 37.6 µM (inactive)"}

* * *

- System: HOP-92
- EXPERIMENT SUMMARY: NCI tumour cell line growth inhibition, 48 h
Active and inactive are the calls of the source. No stated cut-off is given here; in the data, active = GI50 up to about 1.1 µM and inactive = higher.
GI50 values by entry
REPORTED PROPERTY: GI50

{"COMPOUND": "COC(=O)C1CC(C=[N+](C)C)=C(SC)N1C(=O)OCc1ccccc1 (stereo unspecified)", "VALUE": "> 100 µM (inactive)"}
{"COMPOUND": "COc1ccc(-n2c(=O)c3nc[nH]c3n(-c3ccc(OC)cc3)c2=S)cc1", "VALUE": "> 100 µM (inactive)"}
{"COMPOUND": "Cc1c(O)c(OC2OC(CO)C(O)C(O)C2O)cc2c1CC[C@@H]1C2(C)C(=O)C[C@]2(C)[C@@H]([C@@](C)(O)C(O)CCC(C)(C)O)[C@H](O)C[C@@]12C (stereo partly specified)", "VALUE": "> 100 µM (inactive)"}
{"COMPOUND": "CCN1C/C(=C\\c2cc(OC)c(OC)c(OC)c2)C2=NN(c3ccccc3)C(c3cc(OC)c(OC)c(OC)c3)C2C1 (stereo unspecified)", "VALUE": "2.92 µM (inactive)"}
{"COMPOUND": "NC(=S)NNC(=O)/C(=C/c1ccc(/C=C(\\NC(=O)c2ccccc2)C(=O)NNC(N)=S)cc1)NC(=O)c1ccccc1", "VALUE": "> 100 µM (inactive)"}
{"COMPOUND": "O=C(CC(Cc1ccccc1)c1ccc(Oc2ccccc2)cc1)Nc1cccc(Cl)c1 (stereo unspecified)", "VALUE": "1.9 µM (inactive)"}
{"COMPOUND": "CCC1OC(=O)CC(O)C(C)C(OC2OC(C)CC(N(C)C)C2O)C(CC=O)CC(C)C(=O)/C=C/C2(C)OC2C1C (stereo unspecified)", "VALUE": "27.9 µM (inactive)"}
{"COMPOUND": "COc1ccc(C[C@]23CCC(=O)N2CCc2cc(OC)c(O)cc23)cc1O", "VALUE": "> 100 µM (inactive)"}
{"COMPOUND": "CN1NC(c2ccc(Cl)cc2)=C(C#N)C(=O)CC1c1ccccc1 (stereo unspecified)", "VALUE": "> 100 µM (inactive)"}
{"COMPOUND": "COc1ccc(C(CCC(C)=O)C(=O)O)cc1OC (stereo unspecified)", "VALUE": "> 100 µM (inactive)"}
{"COMPOUND": "CCOC(=O)C(=O)Nc1cccc(Cl)c1C", "VALUE": "> 100 µM (inactive)"}
{"COMPOUND": "Nc1nonc1-c1noc(-c2nonc2N)[n+]1[O-]", "VALUE": "69.8 µM (inactive)"}
{"COMPOUND": "NC(=O)c1c[se]c(C2OC(COP(=O)(O)CP(=O)(O)OCC3OC(n4cnc5c(N)ncnc54)C(O)C3O)C(O)C2O)n1 (stereo unspecified)", "VALUE": "> 100 µM (inactive)"}
{"COMPOUND": "COc1cc(-c2cc(OC)c(OC)c3ccc(Br)cc23)c2cc(Br)ccc2c1OC", "VALUE": "18.9 µM (inactive)"}
{"COMPOUND": "C[C@]12CC[C@H]3[C@@H](CC=C4C[C@@H](N5CCCC5)CC[C@@]43C)[C@@H]1C[C@H](N1CCCCC1)[C@@H]2O", "VALUE": "83.8 µM (inactive)"}
{"COMPOUND": "C=C/C(C)=C\\CC1[C@](C)(O)CC[C@H]2C(C)(C)C(O)CC[C@]12C (stereo partly specified)", "VALUE": "> 100 µM (inactive)"}
{"COMPOUND": "COc1cc2c(cc1OCCN1C(=O)c3cccc4cccc(c34)C1=O)N=C[C@@H]1CCCN1C2=O", "VALUE": "7.76 µM (inactive)"}
{"COMPOUND": "O=C1C(Cl)=C(Sc2nnc3c4ccccc4c4ccccc4c3n2)C(=O)c2ccccc21", "VALUE": "16.9 µM (inactive)"}
{"COMPOUND": "CCN(CC)CCNC(=O)c1ccccc1NC(=O)C(=O)Nc1ccccc1C(=O)NCCN(CC)CC", "VALUE": "31.4 µM (inactive)"}
{"COMPOUND": "CS(=O)(=O)Nc1ccc(Nc2c3ccccc3nc3ccccc23)cc1", "VALUE": "4.78 µM (inactive)"}
{"COMPOUND": "O=C1N[C@H]2c3c(Cl)sc(Cl)c3C(=O)[C@H]2O1", "VALUE": "18.5 µM (inactive)"}
{"COMPOUND": "c1nc(NCCc2c[nH]cn2)c2nc[nH]c2n1", "VALUE": "> 100 µM (inactive)"}
{"COMPOUND": "c1cnc2c(c1)ccc1cccnc12", "VALUE": "8.91 µM (inactive)"}
{"COMPOUND": "CCOC(=O)c1sc2nc(SC)nc3c2c1NCN3c1ccc(F)c(F)c1", "VALUE": "18.5 µM (inactive)"}
{"COMPOUND": "O=C(N/N=C/c1cccc(O)c1O)N/N=C/c1cccc(O)c1O", "VALUE": "17.4 µM (inactive)"}
{"COMPOUND": "COc1ccc(S(=O)(=O)N(CC(=O)O)c2ccccc2)cc1", "VALUE": "> 100 µM (inactive)"}
{"COMPOUND": "COc1ccc(-c2cc(O)c3ccc(C)nc3n2)cc1", "VALUE": "97.7 µM (inactive)"}
{"COMPOUND": "CSc1nc2c(c(N3CCOCC3)n1)C(O)n1c(nc3ccccc31)S2 (stereo unspecified)", "VALUE": "72.3 µM (inactive)"}
{"COMPOUND": "COc1ccc(CNc2cc(OC)cc(OC)c2)cc1", "VALUE": "58.9 µM (inactive)"}
{"COMPOUND": "COCc1nc(C#N)c(N)o1", "VALUE": "> 10 µM (inactive)"}
{"COMPOUND": "CN(C)CC/C(=N\\Nc1ccccc1)c1ccccc1", "VALUE": "11.1 µM (inactive)"}
{"COMPOUND": "CC1=COC(=O)c2ccccc2N1", "VALUE": "> 100 µM (inactive)"}
{"COMPOUND": "O=C(NN1C(=O)C(Cl)C1c1ccccc1O)c1ccccc1O (stereo unspecified)", "VALUE": "> 100 µM (inactive)"}
{"COMPOUND": "CCCCNC(=O)NNC(=O)c1cc(/C=C/c2cccc([N+](=O)[O-])c2)ncn1", "VALUE": "> 100 µM (inactive)"}
{"COMPOUND": "COC(=O)c1ccccc1/C=C1\\Cc2ccc(C)c(C)c2C1=O", "VALUE": "34.2 µM (inactive)"}
{"COMPOUND": "COC(=O)c1nn2ccc3ccccc3c2c1C(=O)OC", "VALUE": "96.2 µM (inactive)"}
{"COMPOUND": "N#C/C(c1nc2ccccc2[nH]1)=c1\\s/c(=C/c2ccccc2)c(=O)n1-c1ccccc1", "VALUE": "> 100 µM (inactive)"}
{"COMPOUND": "COc1ccc(NC(=O)C(=O)C2NC(=S)NC2=O)c(OC)c1 (stereo unspecified)", "VALUE": "> 100 µM (inactive)"}
{"COMPOUND": "CCOC(=O)C1=CC(C)(C(=O)OCC)Nc2c(nc(SC)[nH]c2=O)N1 (stereo unspecified)", "VALUE": "> 10 µM (inactive)"}
{"COMPOUND": "COc1ccc(OC)c([N+](=O)[O-])c1-c1nc2sc(Cl)cn2c1/C=N/N=C(N)N", "VALUE": "10.1 µM (inactive)"}
{"COMPOUND": "CCOC(=O)CNC(=O)C(CSC(=O)N(C)O)NC(=O)CCC(N)C(=O)O (stereo unspecified)", "VALUE": "348 µM (inactive)"}
